Measured total protein half-life in vivo by item
- assay: total protein half-life in vivo (active degradation + dilution); higher = more stable protein
- recorded_conditions: wild type E. coli NCM3722; growth: P-lim chemostat; doubling time 6 h
Your answer is read as h, so omit the unit and give the number.

The following sequences have reported results that may help.
MMKTVKHLLCCAIAASALISTGVHAASWKDALSSAASELGNQNSTTQEGGWSLASLTNLLSSGNQALSADNMNNAAGILQYCAKQKLASVTDAENIKNQVLEKLGLNSEEQKEDTNYLDGIQGLLKTKDGQQLNLDNIGTTPLAEKVKTKACDLVLKQGLNFIS | 3.43
MNNHFKCIGIVGHPRHPTALTTHEMLYRWLCTKGYEVIVEQQIAHELQLKNVKTGTLAEIGQLADLAVVVGGDGNMLGAARTLARYDIKVIGINRGNLGFLTDLDPDNAQQQLADVLEGHYISEKRFLLEAQVCQQDCQKRISTAINEVVLHPGKVAHMIEFEVYIDEIFAFSQRSDGLIISTPTGSTAYSLSAGGPILTPSLDAITLVPMFPHTLSARPLVINSSSTIRLRFSHRRNDLEISCDSQIALPIQEGEDVLIRRCDYHLNLIHPKDYSYFNTLSTKLGWSKKLF [P0A7B3] | 5.9
MYHDVSYLLSRLINGPLSLRQIYFASSNGPVPDLAYQVDFPRLEIVLEGEFVDTGAGATLVPGDVLYVPAGGWNFPQWQAPATTFSVLFGKQQLGFSVVQWDGKQYQNLAKQHVARRGPRIGSFLLQTLNEMQMQPQEQQTARLIVASLLSHCRDLLGSQIQTASRSQALFEAIRDYIDERYASALTRESVAQAFYISPNYLSHLFQKTGAIGFNEYLNHTRLEHAKTLLKGYDLKVKEVAHACGFVDSNYFCRLFRKNTERSPSEYRRQYHSQLTEKPTTPE | 3.26
MSDNIRVGLIGYGYASKTFHAPLIAGTPGQELAVISSSDETKVKADWPTVTVVSEPKHLFNDPNIDLIVIPTPNDTHFPLAKAALEAGKHVVVDKPFTVTLSQARELDALAKSLGRVLSVFHNRRWDSDFLTLKGLLAEGVLGEVAYFESHFDRFRPQVRDRWREQGGPGSGIWYDLAPHLLDQAITLFGLPVSMTVDLAQLRPGAQSTDYFHAILSYPQRRVILHGTMLAAAESARYIVHGSRGSYVKYGLDPQEERLKNGERLPQEDWGYDMRDGVLTRVEGEERVEETLLTVPGNYPAYYAAIRDALNGDGENPVPASQAIQVMELIELGIESAKHRATLCLA | 5.48
MRLCDRDIEAWLDEGRLSINPRPPVERINGATVDVRLGNKFRTFRGHTAAFIDLSGPKDEVSAALDRVMSDEIVLDEGEAFYLHPGELALAVTLESVTLPADLVGWLDGRSSLARLGLMVHVTAHRIDPGWSGCIVLEFYNSGKLPLALRPGMLIGALSFEPLSGPAVRPYNRREDAKYRNQQGAVASRIDKD | 5.25

[Q] I would be grateful if you could share the reported total protein half-life in vivo for MVDKSQETTHFGFQTVAKEQKADMVAHVFHSVASKYDVMNDLMSFGIHRLWKRFTIDCSGVRRGQTVLDLAGGTGDLTAKFSRLVGETGKVVLADINESMLKMGREKLRNIGVIGNVEYVQANAEALPFPDNTFDCITISFGLRNVTDKDKALRSMYRVLKPGGRLLVLEFSKPIIEPLSKAYDAYSFHVLPRIGSLVANDADSYRYLAESIRMHPDQDTLKAMMQDAGFESVDYYNLTAGVVALHRGYKF [P0A887] .
[A] 4.45

----------
- assay: total protein half-life in vivo (active degradation + dilution); higher = more stable protein
- recorded_conditions: E. coli NCM3722 delta-clpP delta-lon delta-hslV; growth: N-lim chemostat; doubling time 6 h
measured_endpoint: total protein half-life in vivo (h)
Enter your answer as a number in h; do not include the unit.

[Q] Param item = `MKTMLAAYLPGNSTVDLREVAVPTPGINQVLIKMKSSGICGSDVHYIYHQHRATAAAPDKPLYQGFINGHEPCGQIVAMGQGCRHFKEGDRVLVYHISGCGFCPNCRRGFPISCTGEGKAAYGWQRDGGHAEYLLAEEKDLILLPDALSYEDGAFISCGVGTAYEGILRGEVSGSDNVLVVGLGPVGMMAMMLAKGRGAKRIIGVDMLPERLAMAKQLGVMDHGYLATTEGLPQIIAELTHGGADVALDCSGNAAGRLLALQSTADWGRVVYIGETGKVEFEVSADLMHHQRRIIGSWVTSLFHMEKCAHDLTDWKLWPRNAITHRFSLEQAGDAYALMASGKCGKVVINFPD` ; retrieve measured total protein half-life in vivo.
[A] 4.41

----------
Parameter total protein half-life in vivo: see the listing below.
- assay: total protein half-life in vivo (active degradation + dilution); higher = more stable protein
- recorded_conditions: E. coli NCM3722 delta-lon; growth: N-lim chemostat; doubling time 6 h
Please give a number only; it is taken to be in h.

Solved cases (10 shown):
MQLTSFTDYGLRALIYMASLPEGRMTSISEVTDVYGVSRNHMVKIINQLSRAGYVTAVRGKNGGIRLGKPASAIRIGDVVRELEPLSLVNCSSEFCHITPACRLKQALSKAVQSFLTELDNYTLADLVEENQPLYKLLLVE [P0AF63] | 5.26
MIHSSVKRWGNSPAVRIPATLMQALNLNIDDEVKIDLVDGKLIIEPVRKEPVFTLAELVNDITPENLHENIDWGEPKDKEVW [P0AE72] | 3.17
MIDYTAAGFTLLQGAHLYAPEDRGICDVLVANGKIIAVASNIPSDIVPNCTVVDLSGQILCPGFIDQHVHLIGGGGEAGPTTRTPEVALSRLTEAGVTSVVGLLGTDSISRHPESLLAKTRALNEEGISAWMLTGAYHVPSRTITGSVEKDVAIIDRVIGVKCAISDHRSAAPDVYHLANMAAESRVGGLLGGKPGVTVFHMGDSKKALQPIYDLLENCDVPISKLLPTHVNRNVPLFEQALEFARKGGTIDITSSIDEPVAPAEGIARAVQAGIPLARVTLSSDGNGSQPFFDDEGNLTHIGVAGFETLLETVQVLVKDYDFSISDALRPLTSSVAGFLNLTGKGEILPGNDADLLVMTPELRIEQVYARGKLMVKDGKACVKGTFETA | 5.68
MRILLIEDDMLIGDGIKTGLSKMGFSVDWFTQGRQGKEALYSAPYDAVILDLTLPGMDGRDILREWREKGQREPVLILTARDALAERVEGLRLGADDYLCKPFALIEVAARLEALMRRTNGQASNELRHGNVMLDPGKRIATLAGEPLTLKPKEFALLELLMRNAGRVLSRKLIEEKLYTWDEEVTSNAVEVHVHHLRRKLGSDFIRTVHGIGYTLGEK | 4.5
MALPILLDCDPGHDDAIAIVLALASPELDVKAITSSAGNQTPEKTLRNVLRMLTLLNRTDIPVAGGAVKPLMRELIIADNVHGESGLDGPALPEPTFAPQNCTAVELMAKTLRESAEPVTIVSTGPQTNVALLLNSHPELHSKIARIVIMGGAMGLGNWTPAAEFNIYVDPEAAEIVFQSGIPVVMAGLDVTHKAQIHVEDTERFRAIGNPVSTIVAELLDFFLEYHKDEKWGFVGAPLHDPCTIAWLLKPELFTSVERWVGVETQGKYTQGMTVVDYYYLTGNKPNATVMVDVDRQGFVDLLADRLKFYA | 4.29
MSNQEPATILLIDDHPMLRTGVKQLISMAPDITVVGEASNGEQGIELAESLDPDLILLDLNMPGMNGLETLDKLREKSLSGRIVVFSVSNHEEDVVTALKRGADGYLLKDMEPEDLLKALHQAAAGEMVLSEALTPVLAASLRANRATTERDVNQLTPRERDILKLIAQGLPNKMIARRLDITESTVKVHVKHMLKKMKLKSRVEAAVWVHQERIF [P0AF28] | 4.81
MAHRPRWTLSQVTELFEKPLLDLLFEAQQVHRQHFDPRQVQVSTLLSIKTGACPEDCKYCPQSSRYKTGLEAERLMEVEQVLESARKAKAAGSTRFCMGAAWKNPHERDMPYLEQMVQGVKAMGLEACMTLGTLSESQAQRLANAGLDYYNHNLDTSPEFYGNIITTRTYQERLDTLEKVRDAGIKVCSGGIVGLGETVKDRAGLLLQLANLPTPPESVPINMLVKVKGTPLADNDDVDAFDFIRTIAVARIMMPTSYVRLSAGREQMNEQTQAMCFMAGANSIFYGCKLLTTPNPEEDKDLQLFRKLGLNPQQTAVLAGDNEQQQRLEQALMTPDTDEYYNAAAL | 0.723
MAVQKNVIKGILAGTFALMLSGCVTVPDAIKGSSPTPQQDLVRVMSAPQLYVGQEARFGGKVVAVQNQQGKTRLEIATVPLDSGARPTLGEPSRGRIYADVNGFLDPVDFRGQLVTVVGPITGAVDGKIGNTPYKFMVMQVTGYKRWHLTQQVIMPPQPIDPWFYGGRGWPYGYGGWGWYNPGPARVQTVVTE [P0AA91] | 6.53
MTETIKVSESLELHAVAENHVKPLYQLICKNKTWLQQSLNWPQFVQSEEDTRKTVQGNVMLHQRGYAKMFMIFKEDELIGVISFNRIEPLNKTAEIGYWLDESHQGQGIISQALQALIHHYAQSGELRRFVIKCRVDNPQSNQVALRNGFILEGCLKQAEFLNDAYDDVNLYARIIDSQ | 3.31
MIAELFTNNALNLVIIFGSCAALILMSFWFRRGNRKRKGFLFHAVQFLIYTIIISAVGSIINYVIENYKLKFITPGVIDFICTSLIAVILTIKLFLLINQFEKQQIKKGRDITSARIMSRIIKITIIVVLVLLYGEHFGMSLSGLLTFGGIGGLAVGMAGKDILSNFFSGIMLYFDRPFSIGDWIRSPDRNIEGTVAEIGWRITKITTFDNRPLYVPNSLFSSISVENPGRMTNRRITTTIGLRYEDAAKVGVIVEAVREMLKNHPAIDQRQTLLVYFNQFADSSLNIMVYCFTKTTVWAEWLAAQQDVYLKIIDIVQSHGADFAFPSQTLYMDNITPPEQGR [P0AEB5] | 6.71

[Q] Value lookup for total protein half-life in vivo; key = `MLIPWQDLSPETLENLIESFVLREGTDYGEHERTLEQKVADVKRQLQCGEAVLVWSELHETVNIMPRSQFRE`
[A] 4.14

[Q] # input sequence: MKKNRAFLKWAGGKYPLLDDIKRHLPKGECLVEPFVGAGSVFLNTDFSRYILADINSDLISLYNIVKMRTDEYVQAARELFVPETNCAEVYYQFREEFNKSQDPFRRAVLFLYLNRYGYNGLCRYNLRGEFNVPFGRYKKPYFPEAELYHFAEKAQNAFFYCESYADSMARADDASVVYCDPPYAPLSATANFTAYHTNSFTLEQQAHLAEIAEGLVERHIPVLISNHDTMLTREWYQRAKLHVVKVRRSISSNGGTRKKVDELLALYKPGVVSPAKK [P0AEE8] ; wanted: its total protein half-life in vivo
[A] 4.29
